Hi there, I'd appreciate the recorded one-nucleolus phenotype percent effect for every entry that follows.
# System: MCF10A
# experimental-details: one-nucleolus phenotype percent effect (relative to siNT 0% and siNOL11 100%); higher = more cells with one nucleolus (ribosome biogenesis inhibition)
# assay-context: 20 nM; 72 h

# primary-sequence, assay-value
records = [
    ("UGGUCUGUUCAUUCUCUCUUUUUGGCC [hsa-miR-7107-3p]", "13.2%"),
    ("UGAGCCUCUCCUUCCCUCCAG [hsa-miR-6823-3p]", "-2.85%"),
]

Please state, for each entry, its recorded one-nucleolus phenotype percent effect.
1. UCAAGUAGUUUCAUGAUAAAGG [hsa-miR-5697]
2. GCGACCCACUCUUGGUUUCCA [hsa-miR-551a]
3. GAUGAUGCUGCUGAUGCUG [hsa-miR-1322]
4. UUGGGACAUACUUAUGCUAAA [hsa-miR-1302]
5. CAAAUGGACAGGAUAACACCU [hsa-miR-4694-3p]

-14.6%
-18%
24.5%
-3.28%
11.8%

* * *

# Test system: MCF10A
# experimental-details: one-nucleolus phenotype percent effect (relative to siNT 0% and siNOL11 100%); higher = more cells with one nucleolus (ribosome biogenesis inhibition)
# assay-context: 20 nM; 72 h
measure-name: one-nucleolus phenotype percent effect (%)
Give bare numbers, in %.

# primary-sequence, assay-target, one-nucleolus phenotype percent effect, %
data = [
    ("UUUCCUCAUAUUCAUUCAGGA [hsa-miR-670-3p]", "MCF10A", 4.99),
    ("GAAGAACUGUUGCAUUUGCCCU [hsa-miR-4511]", "MCF10A", -30.8),
    ("CGUGUAUUUGACAAGCUGAGUU [hsa-miR-223-5p]", "MCF10A", 31.4),
]

Would you mind giving one-nucleolus phenotype percent effect for every sequence in the list below?
1. UCUGGGGUCUUGGGCCAUC [hsa-miR-7155-5p]
2. UUUUUCAUUAUUGCUCCUGACC [hsa-miR-335-3p]
3. GAAUAUGGGUAUAUUAGUUUGG [hsa-miR-5583-3p]
4. UCCCUUGUCUCCUUUCCCUAG [hsa-miR-6780b-3p]
5. CCUGGAAACACUGAGGUUGUG [hsa-miR-875-3p]
6. GGCUUGCAUGGGGGACUGG [hsa-miR-4327]
7. CCGCCUGAGCUAGCUGUGG [hsa-miR-6078]

1: 34.2; 2: -20.3; 3: -14.1; 4: -21.9; 5: -26.1; 6: 12.4; 7: -22.1

List reported one-nucleolus phenotype percent effect for each of these sequences:
1. UCUCCCUUGAGGGCACUUU [hsa-miR-4287]
2. GGGGAGCGAGGGGCGGGGC [hsa-miR-6090]
3. AGGAGAAGUAAAGUAGAA [hsa-miR-4434]
4. UGCAAGACGGAUACUGUCAUCU [hsa-miR-4696]
5. CACCUCUCCUGGCAUCGCCCC [hsa-miR-6800-3p]
6. UCCGAACUCUCCAUUCCUCUGC [hsa-miR-6716-3p]
7. UUGGAAGCUUGGACCAACUAGCUG [hsa-miR-6079]
8. GCAGCAUUCAUGUCCC [hsa-miR-4310]

1. -43.1
2. -21.8
3. -15.7
4. -7.62
5. -20.1
6. -19.3
7. 28.7
8. -11

* * *

# System: MCF10A
# experimental-details: 5+ nucleoli phenotype percent effect (relative to siNT 0% and siKIF11 100%); higher = more cells with five or more nucleoli
# assay-context: 20 nM; 72 h
Assign 5+ nucleoli phenotype percent effect to each entry below.
Give bare numbers, in %.

Some entries whose results are on file:
# primary-sequence, readout-units, 5+ nucleoli phenotype percent effect
records = [
    ("UGCUCAGGUUGCACAGCUGGGA [hsa-miR-3934-3p]", "%", -20.7),
    ("GAAGAUGGUGCUGUGCUGAGGAA [hsa-miR-4647]", "%", -5.89),
    ("UGCCCCAACAAGGAAGGACAAG [hsa-miR-5699-5p]", "%", 43.5),
    ("AAAGUGCUUCUCUUUGGUGGGU [hsa-miR-520d-3p]", "%", 58.4),
    ("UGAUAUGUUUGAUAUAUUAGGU [hsa-miR-190a]", "%", 47.6),
]

Name the recorded 5+ nucleoli phenotype percent effect of the item UCAGGUGUGGAAACUGAGGCAG [hsa-miR-3934-5p] in your answer.
-10.9

* * *

# Tested on: MCF10A
# experimental-details: one-nucleolus phenotype percent effect (relative to siNT 0% and siNOL11 100%); higher = more cells with one nucleolus (ribosome biogenesis inhibition)
# assay-context: 20 nM; 72 h
Binary classification by one-nucleolus phenotype percent effect, with 20% as an inclusive lower bound for Met; all other cases are Not met.

Examples from the recorded data:
# primary-sequence, group
rows = [
    ("GGGGAGGUGUGCAGGGCUGG [hsa-miR-6799-5p]", "Not met"),
    ("CUGGGUGAGGGCAUCUGUGGU [hsa-miR-6736-5p]", "Met"),
    ("AGACAGUAGUUCUUGCCUGGUU [hsa-miR-4645-3p]", "Not met"),
    ("UUGUGGGUGGGCAGAAGUCUGU [hsa-miR-6759-5p]", "Met"),
    ("CAAAUUCGUAUCUAGGGGAAUA [hsa-miR-10a-3p]", "Not met"),
]

Hi team, for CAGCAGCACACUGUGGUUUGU [hsa-miR-497-5p] , is the recorded one-nucleolus phenotype percent effect at or above 20%?
Met

Decide: one-nucleolus phenotype percent effect of GGCUGGGUGCUCUUGUGCAGU [hsa-miR-5589-5p] >= 20%?
Met

Check the entry UCAGUGUCUGGAUUUCCUAG [hsa-miR-6733-3p] : does one-nucleolus phenotype percent effect equal or exceed 20%?
Not met

Check this sequence for one-nucleolus phenotype percent effect at or above 20%: UGGCCGGAUGGGACAGGAGGCAU [hsa-miR-4743-5p]
Met

Does the reported one-nucleolus phenotype percent effect for UGGAAGGGAGAAGAGCUUUAAU [hsa-miR-3202] fall at or above the 20% mark?
Met

* * *

# System: MCF10A
# experimental-details: percent viability (nuclei count relative to siNT); higher = more viable cells
# assay-context: 20 nM; 72 h
measure-name: percent viability (%)
Numbers only, in %.

Each of the following entries comes with a recorded value; kindly state percent viability for each.
1. UCUCUGAGUACCAUAUGCCUUGU [hsa-miR-3921]
2. UUCAACAAGGGUGUAGGAUGG [hsa-miR-7159-5p]
3. CGGGUAGAGAGGGCAGUGGGAGG [hsa-miR-197-5p]
4. CGGGACUGUAGAGGGCAUGAGC [hsa-miR-8052]
5. CACCAUGGACGGUUUACC [hsa-miR-7153-3p]
6. CUGGGAGAGGGUUGUUUACUCC [hsa-miR-30c-1-3p]
7. UUAGAGGCUGGAAUAGAGAUUCU [hsa-miR-6866-5p]

1: 59.6; 2: 105; 3: 44.8; 4: 42.4; 5: 23.4; 6: 13.1; 7: 14.1

Report percent viability for each item below.
1. CACCUUGCGCUACUCAGGUCUG [hsa-miR-3200-3p]
2. AGAAGGCCUUUCCAUCUCUGU [hsa-miR-4493]

1. 24.5
2. 45.9

State the recorded percent viability for every item in the following list.
1. CCUGAGACCCUAGUUCCAC [hsa-miR-4329]
2. GGUUCCCUCUCCAAAUGUGUCU [hsa-miR-642b-5p]
3. UAUGGAAAGACUUUGCCACUCU [hsa-miR-3688-3p]

60.7
44.4
54

* * *

Provide the reported percent viability of each item.
# Test system: MCF10A
# experimental-details: percent viability (nuclei count relative to siNT); higher = more viable cells
# assay-context: 20 nM; 72 h
One number for each entry, in %.

Use these answered entries as a reference point.
# primary-sequence, measure-name, assay-value
data = [
    ("CCUGUCUGUGCCUGCUGUACA [hsa-miR-3120-5p]", "percent viability", 127),
    ("AAUGUUUUUUCCUGUUUCC [hsa-miR-4307]", "percent viability", 63.9),
    ("CCCCGGUGUUGGGGCGCGUCUGC [hsa-miR-4783-3p]", "percent viability", 49.5),
    ("UCUGUAUUCUCCUUUGCCUGCAG [hsa-miR-4742-3p]", "percent viability", 24.4),
]

Batch: percent viability for all items listed.
1. AGAACUCUUGCAGUCUUAGAUGU [hsa-miR-4680-5p]
2. UUUCUUCUUAGACAUGGCAGCU [hsa-miR-4659b-3p]

[72, 31.6]
